The entries below come with measured Tm values attached.
# assay_name: melting temperature; fluorescence melt of hairpins on a sequencing array, two-state fit, raised by 9.35 °C to match UV melts
# assay_conditions: sodium 0.088 M

Check out these entries, answers already filled in.
GCAGAGCGAAAGCTTGGC ((..(((....)))..)) ... 49.5 °C
GTGCTCGAAAGAGAGCAC ((((((....)))..))) ... 58.2 °C
GATCACTTGGGTGATC ((((((....)))))) ... 57.1 °C
GGATCCGGAAACGGGTCC (((.(((....))).))) ... 59.4 °C
GTTAAAGGAAACTTTAGC (.(((((....))))).) ... 27.6 °C

Then this sequence:
Item under review: GATCCGCAGACGGATC ((((((....)))))) . Reported Tm?
60.8 °C

---

Recorded Tm for the following sequences
# assay_name: melting temperature; fluorescence melt of hairpins on a sequencing array, two-state fit, raised by 9.35 °C to match UV melts
# assay_conditions: sodium 0.088 M
// note: answer is a bare numeric in °C

Example cases with answers are listed next.
GATCGCAAGCGCGATC ((((((....)))))) ... 67.8
GCACCGGGAAACCGGCGC ((.((((....)))).)) ... 59.6
GCGAAGCGAAAGCCGCGC (((..((....))..))) ... 61.6
GACTACGAAAGTATTGTC ((((((....)))..))) ... 29.6
GGTATGGGAAACCATATC (.(((((....))))).) ... 39.7

Bench note: what Tm did GTGTCCGAAAGGATTCAC ((((((....)))..))) show?
35.3

How about this sequence: GCAAATGGAAACGTTTGC (((((.(....).)))))
49.6

Another sequence: GCTTCGCGAAAGCAAGGC ((.(.((....)).).))
36.1

// query: GTTCAGGGAAACCTGAAC (((((((....)))))))
60.4

Another sequence to check: GAGCGTGCGAAAGCACTC (((..(((....))))))
26.9

Subsequent entry: GACCCACGAAAGTGAGTC (((.(((....))).)))
51.2

Try the sequence GCAGTGCGAAAGCGCAGC ((.(.((....)).).))
62.3

---

# assay_name: melting temperature; fluorescence melt of hairpins on a sequencing array, two-state fit, raised by 9.35 °C to match UV melts
# assay_conditions: sodium 0.088 M
Range-based classes on measured Tm: zone 1: < 40 °C; zone 2: ≥ 40 °C and < 50 °C; zone 3: ≥ 50 °C

GAACTGGCGAAAGCCTTC (((..(((....)))))) ... zone 1
GATCAGCGAAAGCTCATC (((.(((....))).))) ... zone 1

Using the reported Tm, which band applies to GAGTCGGGAAACCGACCC (.(((((....))))).) ?
zone 2

Can you check GCTGCGCGAAAGCAAAGC (((..((....))..))) next?
zone 3

Also check GATCAGCATCTGATC ((((((...))))))
zone 2

Continue with GAGATCGGAAACGATCCC (.(((((....))))).)
zone 2

What do we get for GCGTTGCGAAAGCCAAGC ((.(.((....)).).)) ?
zone 2

Now consider GGCAAAGCGAAAGCTGCC (((..(((....)))))) and answer again.
zone 3

---

Recorded Tm by entry
# assay_name: melting temperature; fluorescence melt of hairpins on a sequencing array, two-state fit, raised by 9.35 °C to match UV melts
# assay_conditions: sodium 0.088 M
Give a bare numeral; the unit °C is implied.

Answered examples (4):
GATCTCCGAAAGGAAATC (((.(((....))).))) ... 34.2
GATCGGTAGGCCGATC ((((((....)))))) ... 57.9
GCGGATCACCGC ((((....)))) ... 59
GAAGAGAAATCTTC (((((....))))) ... 30.6

What Tm value was documented for this sequence, GTGTCCGGAAACGGATAC ((.((((....)))).)) ?
53.3

// query: GATCTACGCTTAGATC ((((((....))))))
43.4

Follow-up entry: GTTGAGGGAAACCTTAAC (((.(((....))).)))
37

Next sequence up: GATCTGAGATCAGATC ((((((....))))))
49.2

GTGACTCGAAAGAGACAC (((.(((....))).))) , same question.
54.3

Also need CTCACGAAAGTGAG (((((....))))) , thanks.
61

---

# assay_name: folding enthalpy; higher = less favourable; fluorescence melt of hairpins on a sequencing array, two-state fit
# assay_conditions: sodium 0.088 M
// folding enthalpy lookup, one value per entry
Express your answer in kcal/mol, writing the number without its unit.

Before answering, review these 5 worked examples.
GCGGGCGAAAGCCCCCGC ((((((....)))..))) ... -11.2
GTGCCTGGAAACAAGCAC ((((.((....)).)))) ... -24.6
GGTATCGAAAGATGAACC ((((((....)))..))) ... -15.4
GGATAAGCGAAAGCTTCC (((..(((....)))))) ... -12.4
GCGGAGCGAAAGCATCGC (((..((....))..))) ... -15.7

Given GCGGGGCGAAAGCATCGC (((..((....))..))) , state its recorded folding enthalpy.
-33.1

Now consider GTAGCTGGAAACAGCTGC (.(((((....))))).) .
-26.3

Lookup GACCATGCGAAAGCAGTC (((..(((....))))))
-10.6

Try this sequence too: GATCGACATCTCGATC ((((((....))))))
-36

Same question, GCTAAGCGAAAGCCCAGC (((..((....))..))) this time
-16.8

Moving on to the next sequence: GGGAATGGAAACATTTCC ((.((((....)))).))
-32

Okay, and CGAGCGGAAACGCCTTCG ((((((....)))..))) ?
-10.7

---

# assay_name: folding enthalpy; higher = less favourable; fluorescence melt of hairpins on a sequencing array, two-state fit
# assay_conditions: sodium 0.088 M
Classification field: enter Y for folding enthalpy values not below -80 kJ/mol, N for values below it.

// below: answered sequences
GATCTCCCGAGAGATC ((((((....)))))) ... N
GGTTTCGAAAGAAAAACC ((((((....)))..))) ... N
GCCAACGAAAGTTAGGGC ((((((....)))..))) ... N
GATCGCGGTTGCGATC ((((((....)))))) ... N
GATCGCGAGTGCGATC ((((((....)))))) ... N

Please indicate if the recorded folding enthalpy for GCGATATCTCGC ((((....)))) meets or exceeds -80 kJ/mol.
N

Same for GACACCGAAAGGTGGGTC ((((((....)))..)))
Y

Cool, now GGAGACGAAAGTCTTTCC ((((((....)))..)))
Y

---

# assay_name: melting temperature; fluorescence melt of hairpins on a sequencing array, two-state fit, raised by 9.35 °C to match UV melts
# assay_conditions: sodium 0.088 M
reported_endpoint: Tm (°C)
Field format: number, assumed °C, no unit text.

GATCCCGGAAACAGGATC (((((.(....).))))) ... 38.8
GAGGATGCGAAAGCACTC (((..(((....)))))) ... 34.9
GATCGTTTAGACGATC ((((((....)))))) ... 55.6
GATCGGATCTCCGATC ((((((....)))))) ... 56.7
GCTGTACCGAAAGGTAGC (((..(((....)))))) ... 43.7

Entry GGGAACGAAAGTTCACCC ((((((....)))..))) has what Tm?
51.6

// query: GATCGGGAGCCCGATC ((((((....))))))
55.5

Thanks! And GTGTCGCCGAAAGGCCAC (((..(((....)))))) ?
44.4

How about this sequence: GTATTGCGAAAGCAGTAC (((.(((....))).)))
51.6

Moving on to the next sequence: GGTTTCGAAAGAAACC ((((((....))))))
64.2

Here is the next sequence: GCGGGGCGAAAGCATCGC (((..((....))..)))
65.2

Would you kindly repeat that for GGTTGCGAAAGCATACC ((((((....))).))) ?
51.8

Check GCCTAACGAAAGTTCGGC (((.(((....))).))) too.
52.4

Consider next the sequence CGCGGAAGCGTCCGCG ((((((....)))))) in the same way.
53.2

Repeat for the following sequence: CCAACGAAAGTTGG (((((....)))))
58

Then what about the sequence GTCGGTGCGAAAGCAGAC (((..(((....)))))) ?
45.2

Also GCCGGTGGAAACACCAGC ((.((((....)))).)) ?
48.4

Can you check GATGACGAAAGTCGCATC ((((((....)))..))) next?
30.8

Then this sequence: GTGGTGGGAAACCGTCAC (((..((....))..)))
38.4

Continue with GCGGAACGAAAGTTCGC (((.(((....))))))
58.9

Now the same for GACATACGAAAGTAAGTC (((.(((....))).)))
42.7
